Tested on: MCF7S
RUN_DESCRIPTION: Cytotoxicity against human mammary tumor cell line MCF7-S
Assay type: functional, cell-based
MEASUREMENT_LABEL: IC50 (nM)
Answer format: numeric, nM implied, no suffix.

{"columns": ["COMPOUND", "EXPERIMENTAL_SYSTEM", "MEASURED_RESULT"],
 "data": [
  ["CC(=O)O[C@@]12CO[C@@H]1C[C@H](O)[C@@]1(C)C(=O)[C@H](OC(=O)C3CC3)C3=C(C)[C@@H](OC(=O)[C@H](O)[C@H](CC(C)C)NC(=O)OC(C)(C)C)C[C@@](O)([C@@H](OC(=O)c4ccccc4)C12)C3(C)C (stereo partly drawn)", "MCF7S", 0.51]
]}

Can you look up the measured IC50 of CC(=O)O[C@@]12CO[C@@H]1C[C@H](O)[C@@]1(C)C(=O)[C@H](O)C3=C(C)[C@@H](OC(=O)[C@H](O)[C@@H](NC(=O)OC(C)(C)C)c4ccccc4)C[C@@](O)([C@@H](OC(=O)c4ccccc4)[C@H]21)C3(C)C for me? 1

Can you look up the measured IC50 of CCC(=O)O[C@H]1C(=O)[C@@]2(C)[C@H]([C@H](OC(=O)c3ccccc3)[C@]3(O)C[C@H](OC(=O)[C@H](O)[C@H](CC(C)C)NC(=O)OC(C)(C)C)C(C)=C1C3(C)C)[C@]1(OC(C)=O)CO[C@@H]1C[C@@H]2O for me? 0.35

* * *

System: MCF7S
RUN_DESCRIPTION: Cytotoxicity against human mammary tumor cell line MCF7-S
Assay type: functional, cell-based
The label MET is reserved for IC50 strictly under 0.2 nM; NOT MET covers values equal to or above it.

Check out these entries, answers already filled in.
{"columns": ["COMPOUND", "ANSWER_LABEL"],
 "data": [
  ["CC(=O)O[C@H]1C(=O)[C@@]2(C)[C@H]([C@H](OC(=O)c3ccccc3)[C@]3(O)C[C@H](OC(=O)[C@H](O)[C@@H](NC(=O)c4ccccc4)c4ccccc4)C(C)=C1C3(C)C)[C@]1(OC(C)=O)CO[C@@H]1C[C@@H]2O", "NOT MET"],
  ["COC(=O)O[C@H]1C(=O)[C@@]2(C)C([C@H](OC(=O)c3ccccc3)[C@]3(O)C[C@H](OC(=O)[C@H](O)[C@H](C=C(C)C)NC(=O)OC(C)(C)C)C(C)=C1C3(C)C)[C@]1(OC(C)=O)CO[C@@H]1C[C@@H]2O (stereo not given in full)", "MET"]
]}

Does the reported IC50 of CCC(=O)O[C@H]1C(=O)[C@@]2(C)[C@H]([C@H](OC(=O)c3ccccc3)[C@]3(O)C[C@H](OC(=O)[C@H](O)[C@H](C=C(C)C)NC(=O)OC(C)(C)C)C(C)=C1C3(C)C)[C@]1(OC(C)=O)CO[C@@H]1C[C@@H]2O stay below 0.2 nM? MET

Does the reported IC50 of CC(=O)O[C@@]12CO[C@@H]1C[C@H](O)[C@@]1(C)C(=O)[C@H](OC(=O)N(C)C)C3=C(C)[C@@H](OC(=O)[C@H](O)[C@H](C=C(C)C)NC(=O)OC(C)(C)C)C[C@@](O)([C@@H](OC(=O)c4ccccc4)C12)C3(C)C (stereo not given in full) stay below 0.2 nM? MET

Where these numbers come from: ChEMBL document CHEMBL1138108
